# assayed.system: Epidermal growth factor receptor (Homo sapiens)
# Sequence (P00533 whole entry): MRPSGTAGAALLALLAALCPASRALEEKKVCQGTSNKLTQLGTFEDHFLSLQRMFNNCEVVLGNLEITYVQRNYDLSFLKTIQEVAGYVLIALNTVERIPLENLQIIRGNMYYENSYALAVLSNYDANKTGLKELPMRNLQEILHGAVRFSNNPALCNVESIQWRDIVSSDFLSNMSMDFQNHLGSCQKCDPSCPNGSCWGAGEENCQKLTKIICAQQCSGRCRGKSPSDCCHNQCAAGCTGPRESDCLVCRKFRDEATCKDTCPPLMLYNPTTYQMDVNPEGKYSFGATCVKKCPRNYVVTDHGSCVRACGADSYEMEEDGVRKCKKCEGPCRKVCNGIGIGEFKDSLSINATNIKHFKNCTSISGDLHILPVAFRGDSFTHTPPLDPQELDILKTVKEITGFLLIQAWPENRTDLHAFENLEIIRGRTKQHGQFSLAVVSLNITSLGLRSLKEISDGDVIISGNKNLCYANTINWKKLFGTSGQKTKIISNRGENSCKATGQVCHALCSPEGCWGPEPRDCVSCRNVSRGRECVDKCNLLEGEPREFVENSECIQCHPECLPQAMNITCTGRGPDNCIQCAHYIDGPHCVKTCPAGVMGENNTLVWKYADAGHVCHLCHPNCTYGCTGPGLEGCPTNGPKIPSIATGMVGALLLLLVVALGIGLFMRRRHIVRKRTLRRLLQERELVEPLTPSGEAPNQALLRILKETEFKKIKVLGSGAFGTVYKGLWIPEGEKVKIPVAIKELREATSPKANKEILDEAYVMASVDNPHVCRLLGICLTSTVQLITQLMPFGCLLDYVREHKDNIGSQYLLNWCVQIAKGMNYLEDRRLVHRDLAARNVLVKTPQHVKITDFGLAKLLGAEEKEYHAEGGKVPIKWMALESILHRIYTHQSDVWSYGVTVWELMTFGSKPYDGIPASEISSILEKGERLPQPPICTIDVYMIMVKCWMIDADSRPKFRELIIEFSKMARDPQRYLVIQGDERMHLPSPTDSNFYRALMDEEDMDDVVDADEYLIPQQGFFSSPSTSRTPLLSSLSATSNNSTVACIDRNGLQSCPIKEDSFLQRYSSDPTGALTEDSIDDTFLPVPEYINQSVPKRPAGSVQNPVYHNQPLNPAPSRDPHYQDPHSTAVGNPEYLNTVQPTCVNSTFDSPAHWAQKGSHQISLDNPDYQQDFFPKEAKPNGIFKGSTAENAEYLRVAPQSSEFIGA
readout.name: IC50 (nM)
Number only, in nM; omit the unit.

[in] Fill in IC50 for CN(C)CCCC(=O)Nc1ccc2nccc(Nc3cccc(Br)c3)c2c1 tested with Epidermal growth factor receptor (Homo sapiens).
[out] 1.7

---

# assay.details: cells
# assay.setup: Mus musculus, BaF3, 96 h
Listed here are compounds together with their documented GI50.

Below are worked cases with known answers.
> print(dat)
                              record.smiles  value.measured
1  C#Cc1cccc(Nc2ccnc3cc(OCCOC)c(OCCOC)cc23)c1        < 500 nM
2     CCC(=O)Nc1ccc2nccc(Nc3cccc(Br)c3)c2c1        > 500 nM
3      C#Cc1cccc(Nc2ccnc3cc(OC)c(OC)cc23)c1        < 500 nM
4  CN(C)CCCC(=O)Nc1ccc2ncnc(Nc3cccc(Br)c3)c2c1        < 500 nM
5    C=CC(=O)Nc1ccc2ncnc(Nc3cccc(Br)c3)c2c1        < 500 nM

Continue with the next compound.
[in] Supply reported GI50 belonging to this compound: C#Cc1cccc(Nc2ncnc3cc(OCCOC)c(OCCOC)cc23)c1
[out] < 500 nM
